Entries and their pIC50
assayed_system: human EHMT2 913-1193 (Homo sapiens)
Construct: recombinant purified human EHMT2 913-1193, Viva; purchased Viva
Sequence (Q96KQ7 913-1193): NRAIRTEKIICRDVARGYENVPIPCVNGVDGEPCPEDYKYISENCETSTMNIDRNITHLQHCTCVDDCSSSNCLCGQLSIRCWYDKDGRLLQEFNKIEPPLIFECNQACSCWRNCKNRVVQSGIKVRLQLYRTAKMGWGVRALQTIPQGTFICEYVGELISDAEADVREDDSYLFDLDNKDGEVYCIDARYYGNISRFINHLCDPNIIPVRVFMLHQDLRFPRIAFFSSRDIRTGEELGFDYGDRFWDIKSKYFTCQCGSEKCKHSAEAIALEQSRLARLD
assay: EHMT2 enzyme assay on histone peptide substrate (EHMT2 PEP)
Assay type: biochemical
condition_info: Table VI; read-out: EHMT2 PEP IC50
pIC50: −log10 of the molar value.
readout_type: pIC50

| compound | assayed_system | readout_type | recorded_value |
| --- | --- | --- | --- |
| CNC(=O)c1cc(C)nc(Nc2ccc(OC)c(OCCCN3CCCC3)c2)n1 | human EHMT2 913-1193 (Homo sapiens) | pIC50 | < 5.00 |
| COc1cc2c(C3CN(C)C3)nc(C)nc2cc1OCCCN1CCCC1 | human EHMT2 913-1193 (Homo sapiens) | pIC50 | 5.00 to 6.00 |
| CNC[C@@H](COc1cc(Nc2nccc(NC)n2)ccc1OC)OC | human EHMT2 913-1193 (Homo sapiens) | pIC50 | 5.00 to 6.00 |
| CC(C)N1CC[C@@H](COc2cnc(N(C)C3CCNCC3)nc2)C1 | human EHMT2 913-1193 (Homo sapiens) | pIC50 | < 5.00 |
| CN1CCC(COc2cnc(N(C)C3CCNCC3)nc2)C1 (stereo not drawn) | human EHMT2 913-1193 (Homo sapiens) | pIC50 | < 5.00 |
| CNS(=O)(=O)CCNc1cc(C)nc(Nc2ccc(OC)c(OCCCN3CCCC3)c2)n1 | human EHMT2 913-1193 (Homo sapiens) | pIC50 | > 7.00 |
| CNc1ccnc(Nc2ccc(OC)c(OC[C@@H]3CCN(C4CC4)C3)c2)n1 | human EHMT2 913-1193 (Homo sapiens) | pIC50 | 6.00 to 7.00 |
| CNc1cc(C)c2cc(OC)c(OCCCN3CCCC3)cc2n1 | human EHMT2 913-1193 (Homo sapiens) | pIC50 | > 7.00 |
| CNc1ccnc(Nc2ccc(OC)c(OC[C@@H](O)CN3CCC3)c2)n1 | human EHMT2 913-1193 (Homo sapiens) | pIC50 | 5.00 to 6.00 |
| CNc1cc(C)nc(Nc2cnc(OC)c(OC[C@@H](O)CN3CCCC3)c2)n1 | human EHMT2 913-1193 (Homo sapiens) | pIC50 | 6.00 to 7.00 |
| CNCCC(C)Oc1cc(Nc2nccc(NC)n2)ccc1OC (stereo not drawn) | human EHMT2 913-1193 (Homo sapiens) | pIC50 | 5.00 to 6.00 |
| CNc1cc(C)nc(Nc2cnc(OC)c(O)c2)n1 | human EHMT2 913-1193 (Homo sapiens) | pIC50 | < 5.00 |
| COc1cnc(Nc2nn(C)c3cnccc23)cc1OCCCN1CCCC1 | human EHMT2 913-1193 (Homo sapiens) | pIC50 | < 5.00 |
| COc1cc(NC2CCNCC2)ncc1OCC1CCNC1 (stereo not drawn) | human EHMT2 913-1193 (Homo sapiens) | pIC50 | 6.00 to 7.00 |
| CNc1ccnc(Nc2ccc(OC)c(CNCCN3CCC3)c2)n1 | human EHMT2 913-1193 (Homo sapiens) | pIC50 | > 7.00 |
| CCN1CC(COc2cc3nc(C)cc(C4CCN(C(C)C)CC4)c3cc2OC)C1 | human EHMT2 913-1193 (Homo sapiens) | pIC50 | > 7.00 |
| CNc1cc(C)nc(Nc2ccc(OC)c(CNCCN3CC[C@@H](F)C3)c2)n1 | human EHMT2 913-1193 (Homo sapiens) | pIC50 | 6.00 to 7.00 |
| CNc1cc(C2CCN([C@H]3CCOC3)CC2)c2cc(OC)c(OCCCN3CCCC3)cc2n1 | human EHMT2 913-1193 (Homo sapiens) | pIC50 | > 7.00 |
| CNc1nc(C2=CC(C)(C)NC(C)(C)C2)c2cc(OC)c(OCCCN3CCCC3)cc2n1 | human EHMT2 913-1193 (Homo sapiens) | pIC50 | 5.00 to 6.00 |
| COc1cc(N(C)C2CCNCC2)ncc1OCC1CCN(C)C1 (stereo not drawn) [Compound 635] | human EHMT2 913-1193 (Homo sapiens) | pIC50 | 5.00 to 6.00 |
| CNc1ccnc(Nc2ccc(OC)c(OC[C@H](O)CN3CCC3)c2)n1 | human EHMT2 913-1193 (Homo sapiens) | pIC50 | > 7.00 |
| CCN1CCC(NCc2cc(Nc3nc(C)cc(NC)n3)ccc2OC)C1 (stereo not drawn) | human EHMT2 913-1193 (Homo sapiens) | pIC50 | 5.00 to 6.00 |
| CNC(=O)C1CCN(c2cc3nc(NC)cc(C)c3cc2OC)C1 (stereo not drawn) | human EHMT2 913-1193 (Homo sapiens) | pIC50 | < 5.00 |
| CNc1cc(C2CCN(CCOC)CC2)c2cc(OC)c(OCCCN3CCCC3)cc2n1 | human EHMT2 913-1193 (Homo sapiens) | pIC50 | > 7.00 |
| CNc1cc(C#CCN2CCOCC2)cc2cc(OCCCN3CCCC3)c(OC)cc12 | human EHMT2 913-1193 (Homo sapiens) | pIC50 | 5.00 to 6.00 |
| CNCCNCc1cc(Nc2nccc(NC)n2)cnc1OC | human EHMT2 913-1193 (Homo sapiens) | pIC50 | 6.00 to 7.00 |
| CNc1cc(C2CCOCC2)c2cc(OC)c(OC[C@@H]3CCNC3)cc2n1 | human EHMT2 913-1193 (Homo sapiens) | pIC50 | > 7.00 |
| CCN1CC[C@@H](COc2cc3nc(C)cc(C4CCN(C(C)C)CC4)c3cc2OC)C1 | human EHMT2 913-1193 (Homo sapiens) | pIC50 | > 7.00 |
| CNc1cc(C2CCN(CC(F)(F)F)CC2)c2cc(OC)c(OCCCN3CCCC3)cc2n1 | human EHMT2 913-1193 (Homo sapiens) | pIC50 | > 7.00 |
| COc1cc2c(C3CCN(C4CCOC4)CC3)nc(C)nc2cc1OCCCN1CCCC1 (stereo not drawn) | human EHMT2 913-1193 (Homo sapiens) | pIC50 | 5.00 to 6.00 |
| COc1cc2c(C3CCOCC3)cc(N3CCCCC3)nc2cc1OCCCN1CCCC1 | human EHMT2 913-1193 (Homo sapiens) | pIC50 | 6.00 to 7.00 |
| CNc1nc(C2CCCN(C)C2)c2cc(OC)c(OCCCN3CCCC3)cc2n1 (stereo not drawn) | human EHMT2 913-1193 (Homo sapiens) | pIC50 | 6.00 to 7.00 |
| CCN1CCO[C@@H](COc2cc(Nc3nccc(NC)n3)ccc2OC)C1 | human EHMT2 913-1193 (Homo sapiens) | pIC50 | < 5.00 |
| CNc1cc(C2CCN(C(C)=O)CC2)c2cc(OC)c(OCCCN3CCCC3)cc2n1 | human EHMT2 913-1193 (Homo sapiens) | pIC50 | > 7.00 |
| CNc1nc2cc(OCCCN3CCCC3)c(OC)cc2cc1F | human EHMT2 913-1193 (Homo sapiens) | pIC50 | < 5.00 |
| CNc1cc(C)nc(Nc2ccc(OC)c(OCCCc3nc(Cl)c[nH]3)c2)n1 | human EHMT2 913-1193 (Homo sapiens) | pIC50 | < 5.00 |
